IC50 values by entry
# SYSTEM_UNDER_TEST: PI3Kα H1047R (T47D cells) (Homo sapiens, UniProt P42336, H1047R)
# Construct: endogenous in cells; host or cells: T47D cells
# Sequence (P42336 whole entry H1047R): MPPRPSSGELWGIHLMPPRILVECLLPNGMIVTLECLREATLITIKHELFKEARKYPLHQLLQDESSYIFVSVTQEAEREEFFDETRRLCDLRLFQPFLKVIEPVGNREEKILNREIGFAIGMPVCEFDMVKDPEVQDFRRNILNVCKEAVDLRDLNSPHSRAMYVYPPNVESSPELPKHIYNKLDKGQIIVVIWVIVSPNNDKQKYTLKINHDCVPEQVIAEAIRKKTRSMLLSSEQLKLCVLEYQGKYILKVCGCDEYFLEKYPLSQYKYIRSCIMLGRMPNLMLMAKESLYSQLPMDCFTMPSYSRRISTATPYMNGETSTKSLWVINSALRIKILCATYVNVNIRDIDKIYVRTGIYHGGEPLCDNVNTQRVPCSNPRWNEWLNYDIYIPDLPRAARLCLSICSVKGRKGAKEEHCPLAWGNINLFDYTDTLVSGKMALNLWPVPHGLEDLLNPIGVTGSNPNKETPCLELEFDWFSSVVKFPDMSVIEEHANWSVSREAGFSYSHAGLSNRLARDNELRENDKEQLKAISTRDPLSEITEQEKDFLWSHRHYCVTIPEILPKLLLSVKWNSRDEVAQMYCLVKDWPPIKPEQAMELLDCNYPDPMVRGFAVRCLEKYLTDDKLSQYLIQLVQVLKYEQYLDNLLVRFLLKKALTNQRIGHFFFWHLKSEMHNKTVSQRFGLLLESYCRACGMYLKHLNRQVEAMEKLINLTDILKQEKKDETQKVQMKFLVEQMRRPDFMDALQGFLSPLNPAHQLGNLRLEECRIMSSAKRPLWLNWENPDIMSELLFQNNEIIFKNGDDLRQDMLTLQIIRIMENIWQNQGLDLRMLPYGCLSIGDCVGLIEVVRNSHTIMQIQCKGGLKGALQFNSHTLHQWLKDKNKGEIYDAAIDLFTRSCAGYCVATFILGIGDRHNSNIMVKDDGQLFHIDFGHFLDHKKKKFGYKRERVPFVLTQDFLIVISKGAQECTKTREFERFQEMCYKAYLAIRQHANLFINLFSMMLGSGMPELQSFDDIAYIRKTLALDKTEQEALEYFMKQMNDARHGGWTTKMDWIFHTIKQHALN
# Sequence (P27986 whole entry partner): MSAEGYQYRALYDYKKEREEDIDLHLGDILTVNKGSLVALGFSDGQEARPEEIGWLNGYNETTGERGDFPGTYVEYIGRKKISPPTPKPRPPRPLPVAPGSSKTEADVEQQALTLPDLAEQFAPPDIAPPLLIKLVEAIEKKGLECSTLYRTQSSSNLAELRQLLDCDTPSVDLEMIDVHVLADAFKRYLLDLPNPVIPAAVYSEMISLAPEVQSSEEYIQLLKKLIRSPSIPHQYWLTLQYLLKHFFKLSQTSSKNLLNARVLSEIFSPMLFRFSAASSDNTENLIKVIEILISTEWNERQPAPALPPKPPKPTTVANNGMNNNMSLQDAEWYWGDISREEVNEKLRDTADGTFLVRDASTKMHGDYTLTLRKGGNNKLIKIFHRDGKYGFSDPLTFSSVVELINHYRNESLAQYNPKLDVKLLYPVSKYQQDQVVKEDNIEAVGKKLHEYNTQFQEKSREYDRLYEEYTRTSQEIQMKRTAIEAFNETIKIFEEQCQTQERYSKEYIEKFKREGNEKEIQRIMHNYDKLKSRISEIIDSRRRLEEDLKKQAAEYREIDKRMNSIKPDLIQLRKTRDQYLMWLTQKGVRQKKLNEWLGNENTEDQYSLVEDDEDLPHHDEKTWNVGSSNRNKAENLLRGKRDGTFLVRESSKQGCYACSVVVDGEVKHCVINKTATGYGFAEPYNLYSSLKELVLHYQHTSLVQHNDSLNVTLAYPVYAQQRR
# EXPERIMENTAL_DETAILS: PI3Kα cellular assay: pAKT HTRF in T47D cells after EGF stimulation
# Type: cell-based
# PROTOCOL_CONDITIONS: T47D cells (PI3Kα H1047R), pAKT S473 HTRF, EGF stimulation
MEASURED_ENDPOINT: IC50

| COMPOUND | MEASURED_ENDPOINT | READING |
| --- | --- | --- |
| CNc1nn(C)c2ccc(-c3cc(=O)n4cc(C)cc([C@H](C)Nc5ccccc5C(=O)O)c4n3)cc12 [Compound 768] | IC50 | 100 to 500 nM |
| Cc1cc([C@@H](C)Nc2ccccc2C(=O)O)c2nc(-c3ccc(Cl)cc3F)c(C)c(=O)n2c1 (single isomer, unassigned) [Compound 965] | IC50 | < 100 nM |
| Cc1cc(C(C)Nc2cccnc2C(=O)O)c2nc(-c3cccc(F)c3)c(C)c(=O)n2c1 (stereo not shown) [Compound 1223] | IC50 | < 100 nM |
| Cc1cc([C@@H](C)Nc2ccccc2C(=O)O)c2nc(-c3ccc4c(c3)c(C)cn4C)cc(=O)n2c1 [Compound 797] | IC50 | > 2000 nM |
| Cc1cc(C(C)Nc2ccccc2C(=O)O)c2nc(C3CCCOC3)c(C#N)c(=O)n2c1 (stereo not shown) [Compound 1353] | IC50 | 100 to 500 nM |
| CC#Cc1nc2c([C@@H](C)Nc3ccccc3C(=O)O)cc(C)cn2c(=O)c1C [Compound 1205] | IC50 | > 2000 nM |
| Cc1cc([C@@H](C)Nc2ccccc2C(=O)O)c2nc(-c3ccc(-c4ccc5c(c4)CCO5)c(F)c3)c(C)c(=O)n2c1 [Compound 1268] | IC50 | < 100 nM |
